Ki, D(2) dopamine receptor (Rattus norvegicus), per-entry values.
measurement type: Ki

compound	measurement type	result
CCCN(CCN1CCN(c2ccc(-c3ccc(OC)cc3)cc2)CC1)C1CCc2nc(N)sc2C1 (racemic)	Ki	213 nM
CCCN(CCN1CCN(c2ccc(-c3ccccc3)cc2)CC1)C1CCc2nc(N)ncc2C1 (racemic)	Ki	735 nM
CCCN(CCN1CCN(c2ccc(-c3cccc(OC)c3)cc2)CC1)C1CCc2nc(N)sc2C1 (racemic)	Ki	464 nM
CCCN(CCN1CCN(c2ccc(-c3ccccc3O)cc2)CC1)C1CCc2nc(N)sc2C1 (racemic)	Ki	208 nM
CCCN(CCN1CCN(c2ccc(-c3cccc(O)c3)cc2)CC1)C1CCc2nc(N)sc2C1 (racemic)	Ki	347 nM

* * *

target under test: UniProt:P14416
Sequence (P14416 whole entry): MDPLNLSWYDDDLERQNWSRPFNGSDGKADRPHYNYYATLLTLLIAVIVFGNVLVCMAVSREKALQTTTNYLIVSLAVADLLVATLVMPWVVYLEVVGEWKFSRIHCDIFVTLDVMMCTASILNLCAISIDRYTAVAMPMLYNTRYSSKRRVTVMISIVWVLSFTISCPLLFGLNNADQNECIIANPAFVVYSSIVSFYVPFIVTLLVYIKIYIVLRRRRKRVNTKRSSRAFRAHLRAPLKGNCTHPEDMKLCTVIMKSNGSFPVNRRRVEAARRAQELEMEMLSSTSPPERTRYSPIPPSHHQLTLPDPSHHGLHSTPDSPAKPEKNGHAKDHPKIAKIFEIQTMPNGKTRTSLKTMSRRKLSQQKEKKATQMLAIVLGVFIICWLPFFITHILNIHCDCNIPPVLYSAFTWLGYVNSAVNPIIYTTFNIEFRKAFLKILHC
assay text: Agonist activity at human dopamine D2 receptor expressed in CHO cells assessed as stimulation of [35S]GTPgammaS binding

mol smiles	EC50 (nM)
CCCN(CCN1CCN(c2ccc(-c3cccc(OC)c3)cc2)CC1)[C@H]1CCc2nc(N)sc2C1	36.8

* * *

Species: Rattus norvegicus
assay text: Selectivity ratio of Ki for rat dopamine D2L receptor to Ki for rat dopamine D3 receptor
Catalogue of Ratio Ki values

compound	Ratio Ki
CCCN(CCN1CCN(c2ccc(-c3ccccc3O)cc2)CC1)C1CCc2nc(N)sc2C1 (racemic)	115
CCCN(CCN1CCN(C(=O)c2ccc(-c3ccccc3)cc2)CC1)C1CCc2nc(N)sc2C1 (racemic)	174
CCCN(CCCCN1CCN(c2ccc(-c3cccc(O)c3)cc2)CC1)C1CCc2nc(N)sc2C1 (racemic)	60
CCCN(CCN1CCN(c2ccc(-c3ccccc3OC)cc2)CC1)C1CCc2nc(N)sc2C1 (racemic)	78
CCCN(CCN1CCN(c2ccc(-c3cccc(OC)c3)cc2)CC1)[C@H]1CCc2nc(N)sc2C1	147
CCCN(CCN1CCN(c2ccc(-c3cccc(O)c3)cc2)CC1)C1CCc2nc(N)ncc2C1 (racemic)	196
CCCN(CCN1CCN(c2ccc(-c3cccc(O)c3)cc2)CC1)[C@H]1CCc2nc(N)sc2C1	213
CCCN(CCN1CCN(c2ccc(-c3ccccc3)cc2)CC1)C1CCc2nc(N)ncc2C1 (racemic)	201
CCCN(CCN1CCN(c2ccc(-c3cccc(OC)c3)cc2)CC1)C1CCc2nc(N)sc2C1 (racemic)	220
CCCN(CCN1CCN(c2ccc(-c3ccccc3)cc2O)CC1)C1CCc2nc(N)sc2C1 (racemic)	30
CCCN(CCN1CCN(c2ccc(-c3cccc(O)c3)cc2)CC1)[C@H]1CCc2c(O)cccc2C1	36
CCCN(CCN1CCN(c2ccc(-c3cccc(O)c3)cc2)CC1)[C@@H]1CCc2nc(N)sc2C1	76
CCCN(CCN1CCN(c2ccc(-c3ccc(OC)cc3)cc2)CC1)C1CCc2nc(N)sc2C1 (racemic)	151
CCCN(CCN1CCN(c2ccc(-c3ccc(O)cc3)cc2)CC1)C1CCc2nc(N)sc2C1 (racemic)	196
CCCN(CCN1CCN(c2ccc(-c3cccc(O)c3)cc2)CC1)C1CCc2nc(N)sc2C1 (racemic)	289

meta.source: ChEMBL document CHEMBL3124863
